Reported inhibition values for the following molecules.
# EXPERIMENTAL_TARGET: Histone acetyltransferase p300 (Homo sapiens) (UniProt Q09472)
# Sequence (Q09472 whole entry, the tested form may be a part): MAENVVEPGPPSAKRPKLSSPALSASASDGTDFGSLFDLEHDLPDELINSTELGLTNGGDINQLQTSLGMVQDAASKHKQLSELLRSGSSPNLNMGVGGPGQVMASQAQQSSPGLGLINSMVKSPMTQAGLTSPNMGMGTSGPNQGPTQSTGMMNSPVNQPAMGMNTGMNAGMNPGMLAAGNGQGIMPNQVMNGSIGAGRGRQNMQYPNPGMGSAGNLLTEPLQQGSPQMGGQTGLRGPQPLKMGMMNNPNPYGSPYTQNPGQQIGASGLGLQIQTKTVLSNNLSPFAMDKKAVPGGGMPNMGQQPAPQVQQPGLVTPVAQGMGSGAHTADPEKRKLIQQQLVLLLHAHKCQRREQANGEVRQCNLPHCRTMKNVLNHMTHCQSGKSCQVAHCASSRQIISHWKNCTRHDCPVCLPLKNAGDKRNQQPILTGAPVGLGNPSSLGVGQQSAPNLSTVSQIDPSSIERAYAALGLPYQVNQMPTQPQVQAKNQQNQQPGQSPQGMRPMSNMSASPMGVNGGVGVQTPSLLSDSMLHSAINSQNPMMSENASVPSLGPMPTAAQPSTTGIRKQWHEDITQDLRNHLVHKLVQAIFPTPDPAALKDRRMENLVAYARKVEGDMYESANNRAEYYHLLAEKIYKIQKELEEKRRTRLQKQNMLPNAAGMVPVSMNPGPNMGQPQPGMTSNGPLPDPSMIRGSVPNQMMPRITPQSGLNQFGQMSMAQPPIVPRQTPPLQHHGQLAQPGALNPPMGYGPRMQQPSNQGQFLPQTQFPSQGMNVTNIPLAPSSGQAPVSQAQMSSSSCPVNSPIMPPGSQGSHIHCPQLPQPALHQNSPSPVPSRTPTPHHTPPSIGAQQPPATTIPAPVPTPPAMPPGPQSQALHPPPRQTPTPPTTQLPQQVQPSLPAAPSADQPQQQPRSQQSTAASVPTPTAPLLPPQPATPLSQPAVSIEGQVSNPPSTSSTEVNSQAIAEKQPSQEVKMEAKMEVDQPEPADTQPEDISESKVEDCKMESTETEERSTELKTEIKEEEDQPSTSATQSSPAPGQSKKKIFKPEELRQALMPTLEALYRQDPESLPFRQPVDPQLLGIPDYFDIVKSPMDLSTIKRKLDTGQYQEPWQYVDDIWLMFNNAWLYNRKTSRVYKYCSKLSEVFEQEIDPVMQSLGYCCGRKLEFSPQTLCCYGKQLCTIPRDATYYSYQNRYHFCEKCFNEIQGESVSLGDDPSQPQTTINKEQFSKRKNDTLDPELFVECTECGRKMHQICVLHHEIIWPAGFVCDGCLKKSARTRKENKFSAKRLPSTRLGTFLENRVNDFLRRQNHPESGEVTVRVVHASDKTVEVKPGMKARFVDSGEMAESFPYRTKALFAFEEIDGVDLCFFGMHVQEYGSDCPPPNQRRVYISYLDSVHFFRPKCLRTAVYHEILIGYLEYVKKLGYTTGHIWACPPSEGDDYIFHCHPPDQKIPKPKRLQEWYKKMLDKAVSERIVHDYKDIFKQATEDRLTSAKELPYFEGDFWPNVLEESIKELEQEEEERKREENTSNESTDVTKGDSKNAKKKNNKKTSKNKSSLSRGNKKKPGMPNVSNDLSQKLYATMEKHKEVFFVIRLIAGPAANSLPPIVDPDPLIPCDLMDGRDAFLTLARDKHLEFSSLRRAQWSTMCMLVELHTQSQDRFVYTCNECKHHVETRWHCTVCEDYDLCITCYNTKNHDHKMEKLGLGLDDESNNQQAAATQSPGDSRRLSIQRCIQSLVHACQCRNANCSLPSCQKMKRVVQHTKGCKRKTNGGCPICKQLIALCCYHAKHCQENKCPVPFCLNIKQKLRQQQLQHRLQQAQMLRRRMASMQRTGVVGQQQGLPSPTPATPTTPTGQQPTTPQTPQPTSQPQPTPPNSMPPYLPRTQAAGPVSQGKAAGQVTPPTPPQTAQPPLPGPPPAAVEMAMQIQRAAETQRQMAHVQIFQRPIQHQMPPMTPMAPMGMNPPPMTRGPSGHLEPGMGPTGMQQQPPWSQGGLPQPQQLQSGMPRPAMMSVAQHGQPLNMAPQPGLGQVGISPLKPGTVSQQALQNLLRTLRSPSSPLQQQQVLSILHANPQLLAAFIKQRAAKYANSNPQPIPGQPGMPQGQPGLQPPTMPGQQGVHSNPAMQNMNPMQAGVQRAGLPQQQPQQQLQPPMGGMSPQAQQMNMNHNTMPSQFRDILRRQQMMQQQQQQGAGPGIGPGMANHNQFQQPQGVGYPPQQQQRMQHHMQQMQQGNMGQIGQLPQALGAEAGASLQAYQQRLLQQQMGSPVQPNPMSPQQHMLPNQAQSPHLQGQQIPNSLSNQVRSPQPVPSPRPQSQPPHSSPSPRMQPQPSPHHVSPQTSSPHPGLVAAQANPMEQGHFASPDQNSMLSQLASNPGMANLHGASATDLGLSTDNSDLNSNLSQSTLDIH
# ASSAY: Inhibition of recombinant human p300 catalytic domain (1284 to 1673 aa) using histone H3 at 200 uM after 1 hr by radiochemical assay in presence of [acetyl-3H]-acetyl coenzyme A
A number alone suffices; assume %.

{"MOLECULE": "C/C(=N/Nc1nc(-c2ccc(Cl)cc2)cs1)c1cc2ccccc2oc1=O", "EXPERIMENTAL_RESULT": 86}
{"MOLECULE": "COc1ccc(-c2csc(NN=C3CCCC3)n2)cc1", "EXPERIMENTAL_RESULT": 47}
{"MOLECULE": "Clc1ccc(-c2csc(N/N=C\\c3c[nH]c4ccccc34)n2)cc1", "EXPERIMENTAL_RESULT": 79}
{"MOLECULE": "C/C(=N/Nc1nc(-c2ccc(Cl)cc2)cs1)c1ccccn1", "EXPERIMENTAL_RESULT": 69}
{"MOLECULE": "C/C(=N/Nc1nc(-c2ccc(Cl)cc2)cs1)c1nccs1", "EXPERIMENTAL_RESULT": 55}

Could you now consider this next molecule?
### Prompt Which value of inhibition has been reported for CC1CC/C(=N/Nc2nc(-c3cc4ccccc4oc3=O)cs2)C1 (configuration not stated) in the records?
### Response 52

---

# EXPERIMENTAL_TARGET: Histone acetyltransferase p300 (Homo sapiens) (UniProt Q09472)
# ASSAY: Inhibition of recombinant human p300 catalytic domain (1284 to 1673 aa) using histone H3 at 100 uM after 1 hr by radiochemical assay in presence of [acetyl-3H]-acetyl coenzyme A
ENDPOINT: inhibition (%)
A number alone suffices; assume %.

{"MOLECULE": "C/C(=N/Nc1nc(-c2ccc(Cl)cc2)cs1)c1ccccn1", "inhibition [%]": 51}
{"MOLECULE": "CC(C)=NNc1nc(-c2ccc(Br)cc2)cc(=O)[nH]1", "inhibition [%]": 9}
{"MOLECULE": "C=CCC/C(C)=N/Nc1nc(-c2ccc(Cl)cc2)cs1", "inhibition [%]": 32}
{"MOLECULE": "CC1CCC/C1=N/Nc1nc(-c2ccc(Cl)cc2)cs1 (configuration not stated)", "inhibition [%]": 33}
{"MOLECULE": "CC(C)=NNc1nc(-c2ccc(F)cc2)cs1", "inhibition [%]": 34}

### Prompt Which value of inhibition has been reported for CC1CCC/C(=N/Nc2nc(-c3ccc(Cl)cc3)cs2)C1 (configuration not stated) in the records?
### Response 9

### Prompt Which value of inhibition has been reported for Nc1nc(-c2ccccc2)cs1 in the records?
### Response 4

---

# EXPERIMENTAL_TARGET: Histone acetyltransferase p300 (Homo sapiens) (UniProt Q09472)
# ASSAY: Inhibition of recombinant human p300 catalytic domain (1284 to 1673 aa) using histone H3 at 100 uM after 1 hr by radiochemical assay in presence of [acetyl-3H]-acetyl coenzyme A
Reported inhibition values for the following molecules.
# do not omit the unit; it follows the number

{"MOLECULE": "C/C(=N/Nc1nc(-c2ccc(Cl)cc2)cs1)C1c2ccccc2-c2ccc(C(=O)O)cc21 (centres undefined)", "EXPERIMENTAL_RESULT": "37%"}

### Prompt Which value of inhibition has been reported for COc1cccc(-c2csc(NN=C3CCCC3)n2)c1 in the records?
### Response 31%

### Prompt Which value of inhibition has been reported for C/C(=N/Nc1nc(-c2ccc(Cl)cc2)cs1)c1nccs1 in the records?
### Response 46%

---

# EXPERIMENTAL_TARGET: Histone acetyltransferase KAT2B (Homo sapiens) (UniProt Q92831)
# Sequence (Q92831 whole entry, looked up, the tested form may be a part): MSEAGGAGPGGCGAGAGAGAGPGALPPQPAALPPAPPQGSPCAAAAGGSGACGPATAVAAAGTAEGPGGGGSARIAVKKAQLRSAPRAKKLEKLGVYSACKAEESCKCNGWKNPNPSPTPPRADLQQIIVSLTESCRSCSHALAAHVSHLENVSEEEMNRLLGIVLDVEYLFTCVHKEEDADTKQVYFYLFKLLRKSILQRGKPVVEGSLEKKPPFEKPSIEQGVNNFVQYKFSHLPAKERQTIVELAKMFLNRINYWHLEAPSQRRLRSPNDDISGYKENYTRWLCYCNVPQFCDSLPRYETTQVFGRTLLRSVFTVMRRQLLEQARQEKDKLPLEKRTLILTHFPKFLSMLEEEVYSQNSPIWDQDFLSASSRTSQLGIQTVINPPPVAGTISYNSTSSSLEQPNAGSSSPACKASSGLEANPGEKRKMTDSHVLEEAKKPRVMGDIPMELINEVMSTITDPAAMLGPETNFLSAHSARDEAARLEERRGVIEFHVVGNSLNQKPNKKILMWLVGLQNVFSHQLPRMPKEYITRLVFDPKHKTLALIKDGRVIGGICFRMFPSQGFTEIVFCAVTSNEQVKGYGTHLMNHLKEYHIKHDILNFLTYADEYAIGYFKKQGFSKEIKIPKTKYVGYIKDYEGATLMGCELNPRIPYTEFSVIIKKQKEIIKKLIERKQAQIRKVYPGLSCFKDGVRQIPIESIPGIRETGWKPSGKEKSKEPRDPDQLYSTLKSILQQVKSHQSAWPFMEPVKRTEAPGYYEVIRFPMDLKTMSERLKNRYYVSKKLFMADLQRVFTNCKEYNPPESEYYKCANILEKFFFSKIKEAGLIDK
# ASSAY: Inhibition of recombinant human PCAF catalytic domain (492 to 658 aa) using histone H3 at 100 uM after 1 hr by radiochemical assay in presence of [acetyl-3H]-acetyl coenzyme A
ENDPOINT: inhibition (%)
A number alone suffices; assume %.

### Prompt Param readout = inhibition; param system = Histone acetyltransferase KAT2B (Homo sapiens) (UniProt Q92831); param query = CC(C)=NNc1nc(-c2cccc([N+](=O)[O-])c2)cs1 ; response: value
### Response 7

### Prompt Param readout = inhibition; param system = Histone acetyltransferase KAT2B (Homo sapiens) (UniProt Q92831); param query = Fc1ccc(-c2csc(NN=C3CCCC3)n2)cc1 ; response: value
### Response 12

### Prompt Param readout = inhibition; param system = Histone acetyltransferase KAT2B (Homo sapiens) (UniProt Q92831); param query = NNc1nc(-c2ccccc2)cs1 ; response: value
### Response 16

---

# EXPERIMENTAL_TARGET: Histone acetyltransferase KAT2B (Homo sapiens)
# ASSAY: Inhibition of recombinant human PCAF catalytic domain (492 to 658 aa) using histone H3 at 100 uM after 1 hr by radiochemical assay in presence of [acetyl-3H]-acetyl coenzyme A
Reported inhibition values for the following compounds.
A number alone suffices; assume %.

{"COMPOUND": "CC(C)=NNc1nc(-c2ccc(Cl)cc2Cl)cs1", "EXPERIMENTAL_RESULT": 16}
{"COMPOUND": "C/C(=N/Nc1nc(-c2ccc(Cl)cc2)cs1)c1cccnc1", "EXPERIMENTAL_RESULT": 11}
{"COMPOUND": "CC(C)=NNc1nc(-c2cc3ccccc3oc2=O)cs1", "EXPERIMENTAL_RESULT": 12}
{"COMPOUND": "Clc1ccc(-c2csc(N/N=C\\c3cccs3)n2)cc1", "EXPERIMENTAL_RESULT": 4}
{"COMPOUND": "Cc1sc(NN=C2CCCC2)nc1-c1ccccc1", "EXPERIMENTAL_RESULT": 2}
{"COMPOUND": "CC/C(C)=N/Nc1nc(-c2ccc(Cl)cc2)cs1", "EXPERIMENTAL_RESULT": 8}

### Prompt Which value of inhibition has been reported for CC1CC/C(=N/Nc2nc(-c3cc4ccccc4oc3=O)cs2)C1 (stereo unspecified) in the records?
### Response 13

### Prompt Which value of inhibition has been reported for CC1CC/C(=N/Nc2nc(-c3ccc(Cl)cc3)cs2)C1 (stereo unspecified) in the records?
### Response 0

### Prompt Which value of inhibition has been reported for O=C1CSC(NN=C2CCCC2)=N1 in the records?
### Response 1

### Prompt Which value of inhibition has been reported for C/C(=N/Nc1nc(-c2ccc(Cl)cc2)cs1)c1ccccc1 in the records?
### Response 9

### Prompt Which value of inhibition has been reported for CC1CC/C(=N/Nc2nc(-c3ccc4ccccc4c3)cs2)C1 (stereo unspecified) in the records?
### Response 0

### Prompt Which value of inhibition has been reported for C/C(=N/Nc1nc(-c2ccc(Cl)cc2)cs1)C1c2ccccc2-c2ccc(C(=O)O)cc21 (stereo unspecified) in the records?
### Response 14

### Prompt Which value of inhibition has been reported for C/C(=N/Nc1nc(-c2ccc(Cl)cc2)cs1)c1cc2ccccc2oc1=O in the records?
### Response 11

---

# EXPERIMENTAL_TARGET: Histone acetyltransferase p300 (Homo sapiens)
# ASSAY: Inhibition of recombinant human p300 catalytic domain (1284 to 1673 aa) using histone H3 at 100 uM after 1 hr by radiochemical assay in presence of [acetyl-3H]-acetyl coenzyme A
inhibition below 30% gives Criterion not met; inhibition at or above it gives Criterion met.

Check out these entries, answers already filled in.
{"COMPOUND": "CC(C)=NNc1nc(-c2cccc([N+](=O)[O-])c2)cc(=O)[nH]1", "EXPERIMENTAL_TARGET": "Histone acetyltransferase p300 (Homo sapiens)", "LABEL": "Criterion not met"}
{"COMPOUND": "CC(C)=NNc1nc(-c2ccc3ccccc3c2)cs1", "EXPERIMENTAL_TARGET": "Histone acetyltransferase p300 (Homo sapiens)", "LABEL": "Criterion not met"}
{"COMPOUND": "CC1(C)C=C/C(=N\\Nc2nc(-c3ccc(Cl)cc3)cs2)CC1", "EXPERIMENTAL_TARGET": "Histone acetyltransferase p300 (Homo sapiens)", "LABEL": "Criterion not met"}
{"COMPOUND": "C/C(=N/Nc1nc(-c2ccc(Cl)cc2)cs1)C1CCCCC1", "EXPERIMENTAL_TARGET": "Histone acetyltransferase p300 (Homo sapiens)", "LABEL": "Criterion not met"}

### Prompt Given the entry c1ccc(-c2csc(NN=C3CCCC3)n2)cc1 , answer whether its inhibition meets or surpasses 30%.
### Response Criterion met

### Prompt Given the entry CC1CC/C(=N/Nc2nc(-c3ccc(Br)cc3)cc(=O)[nH]2)C1 (centres undefined) , answer whether its inhibition meets or surpasses 30%.
### Response Criterion not met

### Prompt Given the entry Clc1ccc(-c2csc(NN=C3CCCC3)n2)cc1 , answer whether its inhibition meets or surpasses 30%.
### Response Criterion met
